The reader will find reported IC50 values listed item by item below.
testSystem: PARP2 (Homo sapiens (Human), UniProt Q9UGN5)
Sequence (Q9UGN5 whole entry): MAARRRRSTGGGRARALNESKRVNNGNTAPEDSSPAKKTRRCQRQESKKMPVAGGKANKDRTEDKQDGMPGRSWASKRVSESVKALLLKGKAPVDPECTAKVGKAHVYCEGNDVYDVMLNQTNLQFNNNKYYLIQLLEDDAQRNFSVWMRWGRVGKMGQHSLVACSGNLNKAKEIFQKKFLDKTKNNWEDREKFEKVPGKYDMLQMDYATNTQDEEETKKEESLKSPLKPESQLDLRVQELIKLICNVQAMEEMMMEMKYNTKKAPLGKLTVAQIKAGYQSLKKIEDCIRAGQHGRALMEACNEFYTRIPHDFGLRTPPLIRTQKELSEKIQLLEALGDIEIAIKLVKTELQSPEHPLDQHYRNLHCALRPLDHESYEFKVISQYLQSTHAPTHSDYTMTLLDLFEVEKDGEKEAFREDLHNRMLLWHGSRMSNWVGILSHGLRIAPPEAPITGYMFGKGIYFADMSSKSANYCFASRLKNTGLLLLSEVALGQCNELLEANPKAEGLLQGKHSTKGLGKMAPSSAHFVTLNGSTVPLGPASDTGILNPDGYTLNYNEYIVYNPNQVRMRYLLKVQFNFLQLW

[2H]C([2H])([2H])NC(=O)c1ccc(N2CCN(Cc3ccc4c([nH]c(=O)c5c(F)cnn54)c3F)CC2)c(F)n1 (single isomer, unassigned) [Example 33]
> 100 µM

From here, focus on the item given below.
Form field: reported IC50 of [2H]C([2H])([2H])NC(=O)c1ccc(N2CCN(Cc3ccc4c([nH]c(=O)c5ccnn54)c3F)CC2)c(F)n1 [Example 18] > 100 µM
